- procedure details: Ex vivo biodistribution in PC-3 tumor-bearing mice
- condition: mouse, liver, Uptake in liver, 1 h post-injection
quantity name: tissue uptake at 1 h (%ID/g)
# number only, unit %ID/g dropped from output

Identify tissue uptake at 1 h associated with the molecule CC(C)C[C@@H](CN1CSC[C@H]1C(N)=O)NC(=O)[C@H](Cc1cnc[nH]1)NC(=O)CN(C)C(=O)[C@@H](NC(=O)[C@H](C)NC(=O)[C@H](Cc1c[nH]c2ccccc12)NC(=O)[C@H](CCC(N)=O)NC(=O)[C@@H](Cc1ccccc1)NC(=O)CN1CCC(NC(=O)CN2CCN(CC(=O)O)CCN(CC(=O)O)CCN(CC(=O)O)CC2)CC1)C(C)C [[^177Lu]Lu-TacsBOMB5, metal not drawn]
0.67

###

- procedure details: Ex vivo biodistribution in PC-3 tumor-bearing mice
- condition: mouse, bone, Uptake in bone, 4 h post-injection
Numbered stars: 1 amine (or outer) side, 2 acyl side, 3 side chain; on linkers, the order of the positions; unused ones are H or OH. Square brackets hold non-standard residues; d marks the D form. Peptide text beside a SMILES is read from it. * marks the point of attachment. DOTA = O=C(O)CN1CCN(CC(=O)O)CCN(CC(=O)*)CCN(CC(=O)O)CC1; NMeH = CN[C@@H](Cc1c[nH]cn1)C(=O)O; X1 = O=C(CN1CCC(N[*:1])CC1)[*:2]; Tle = CC(C)(C)[C@H](N)C(=O)O; Thz = O=C(O)[C@@H]1CSCN1
quantity name: tissue uptake at 4 h (%ID/g)
# number only, unit %ID/g dropped from output

// worked examples, tissue uptake at 4 h included
1. CC(C)C[C@H](NC(=O)[C@H](Cc1cnc[nH]1)N(C)C(=O)CNC(=O)[C@@H](NC(=O)[C@H](C)NC(=O)[C@H](Cc1c[nH]c2ccccc12)NC(=O)[C@H](CCC(N)=O)NC(=O)[C@@H](Cc1ccccc1)NC(=O)CN1CCC(NC(=O)CN2CCN(CC(=O)O)CCN(CC(=O)O)CCN(CC(=O)O)CC2)CC1)C(C)(C)C)C(=O)N1CSC[C@H]1C(N)=O [[^177Lu]Lu-LW01110, metal not drawn]	0.05
2. CC(C)C[C@H](NC(=O)[C@H](Cc1cnc[nH]1)N(C)C(=O)CNC(=O)[C@@H](NC(=O)[C@H](C)NC(=O)[C@H](Cc1c[nH]c2ccccc12)NC(=O)[C@H](Cc1c[nH]cn1)NC(=O)[C@@H](Cc1ccccc1)NC(=O)CN1CCC(NC(=O)CN2CCN(CC(=O)O)CCN(CC(=O)O)CCN(CC(=O)O)CC2)CC1)C(C)(C)C)C(=O)N1CSC[C@H]1C(N)=O [[^177Lu]Lu-LW01142, metal not drawn] ({DOTA}-[X1][dF]HWA[Tle]G[NMeH]L[Thz]-NH2)	0.03

Identify tissue uptake at 4 h associated with the compound CC(C)C[C@@H](CN1CSC[C@H]1C(N)=O)NC(=O)[C@H](Cc1cnc[nH]1)NC(=O)CN(C)C(=O)[C@@H](NC(=O)[C@H](C)NC(=O)[C@H](Cc1c[nH]c2ccccc12)NC(=O)[C@H](CCC(N)=O)NC(=O)[C@@H](Cc1ccccc1)NC(=O)CN1CCC(NC(=O)CN2CCN(CC(=O)O)CCN(CC(=O)O)CCN(CC(=O)O)CC2)CC1)C(C)C [[^177Lu]Lu-TacsBOMB5, metal not drawn]
0.09

###

- procedure details: Ex vivo biodistribution in PC-3 tumor-bearing mice
- condition: mouse, testes, Uptake in testes, 1 h post-injection
quantity name: tissue uptake at 1 h (%ID/g)
# number only, unit %ID/g dropped from output

Identify tissue uptake at 1 h associated with the compound CC(C)C[C@@H](CN1CSC[C@H]1C(N)=O)NC(=O)[C@H](Cc1cnc[nH]1)NC(=O)CN(C)C(=O)[C@@H](NC(=O)[C@H](C)NC(=O)[C@H](Cc1c[nH]c2ccccc12)NC(=O)[C@H](CCC(N)=O)NC(=O)[C@@H](Cc1ccccc1)NC(=O)CN1CCC(NC(=O)CN2CCN(CC(=O)O)CCN(CC(=O)O)CCN(CC(=O)O)CC2)CC1)C(C)C [[^177Lu]Lu-TacsBOMB5, metal not drawn]
0.45

###

- procedure details: Ex vivo biodistribution in PC-3 tumor-bearing mice
- condition: mouse, large intestine, Uptake in large intestine, 72 h post-injection
Numbered stars: 1 amine (or outer) side, 2 acyl side, 3 side chain; on linkers, the order of the positions; unused ones are H or OH. Square brackets hold non-standard residues; d marks the D form. Peptide text beside a SMILES is read from it. * marks the point of attachment. DOTA = O=C(O)CN1CCN(CC(=O)O)CCN(CC(=O)*)CCN(CC(=O)O)CC1; NMeH = CN[C@@H](Cc1c[nH]cn1)C(=O)O; X1 = O=C(CN1CCC(N[*:1])CC1)[*:2]; Tle = CC(C)(C)[C@H](N)C(=O)O; Thz = O=C(O)[C@@H]1CSCN1
quantity name: tissue uptake at 72 h (%ID/g)
# number only, unit %ID/g dropped from output

Identify tissue uptake at 72 h associated with the molecule CC(C)C[C@H](NC(=O)[C@H](Cc1cnc[nH]1)N(C)C(=O)CNC(=O)[C@@H](NC(=O)[C@H](C)NC(=O)[C@H](Cc1c[nH]c2ccccc12)NC(=O)[C@H](Cc1c[nH]cn1)NC(=O)[C@@H](Cc1ccccc1)NC(=O)CN1CCC(NC(=O)CN2CCN(CC(=O)O)CCN(CC(=O)O)CCN(CC(=O)O)CC2)CC1)C(C)(C)C)C(=O)N1CSC[C@H]1C(N)=O [[^177Lu]Lu-LW01142, metal not drawn] ({DOTA}-[X1][dF]HWA[Tle]G[NMeH]L[Thz]-NH2)
0.13

###

- procedure details: Ex vivo biodistribution in PC-3 tumor-bearing mice
- condition: mouse, small intestine, 100 ug, Uptake in small intestine, 1 h blocked (co-injected with 100 µg [D-Phe6,Leu-NHEt13,des-Met14]Bombesin(6-14))
Numbered stars: 1 amine (or outer) side, 2 acyl side, 3 side chain; on linkers, the order of the positions; unused ones are H or OH. Square brackets hold non-standard residues; d marks the D form. Peptide text beside a SMILES is read from it. * marks the point of attachment. DOTA = O=C(O)CN1CCN(CC(=O)O)CCN(CC(=O)*)CCN(CC(=O)O)CC1; NMeH = CN[C@@H](Cc1c[nH]cn1)C(=O)O; X1 = O=C(CN1CCC(N[*:1])CC1)[*:2]; Tle = CC(C)(C)[C@H](N)C(=O)O; Thz = O=C(O)[C@@H]1CSCN1
quantity name: tissue uptake at 1 h
Respond with the figure and its unit, in that order.

1. CC(C)C[C@@H](CN1CSC[C@H]1C(N)=O)NC(=O)[C@H](Cc1cnc[nH]1)NC(=O)CN(C)C(=O)[C@@H](NC(=O)[C@H](C)NC(=O)[C@H](Cc1c[nH]c2ccccc12)NC(=O)[C@H](CCC(N)=O)NC(=O)[C@@H](Cc1ccccc1)NC(=O)CN1CCC(NC(=O)CN2CCN(CC(=O)O)CCN(CC(=O)O)CCN(CC(=O)O)CC2)CC1)C(C)C [[^177Lu]Lu-TacsBOMB5, metal not drawn]	0.26 %ID/g
2. CC(C)C[C@H](NC(=O)[C@H](Cc1cnc[nH]1)N(C)C(=O)CNC(=O)[C@@H](NC(=O)[C@H](C)NC(=O)[C@H](Cc1c[nH]c2ccccc12)NC(=O)[C@H](Cc1c[nH]cn1)NC(=O)[C@@H](Cc1ccccc1)NC(=O)CN1CCC(NC(=O)CN2CCN(CC(=O)O)CCN(CC(=O)O)CCN(CC(=O)O)CC2)CC1)C(C)(C)C)C(=O)N1CSC[C@H]1C(N)=O [[^177Lu]Lu-LW01142, metal not drawn] ({DOTA}-[X1][dF]HWA[Tle]G[NMeH]L[Thz]-NH2)	0.54 %ID/g

Now turn to the next compound.
Identify tissue uptake at 1 h associated with the compound CC(C)C[C@H](NC(=O)[C@H](Cc1cnc[nH]1)N(C)C(=O)CNC(=O)[C@@H](NC(=O)[C@H](C)NC(=O)[C@H](Cc1c[nH]c2ccccc12)NC(=O)[C@H](CCC(N)=O)NC(=O)[C@@H](Cc1ccccc1)NC(=O)CN1CCC(NC(=O)CN2CCN(CC(=O)O)CCN(CC(=O)O)CCN(CC(=O)O)CC2)CC1)C(C)(C)C)C(=O)N1CSC[C@H]1C(N)=O [[^177Lu]Lu-LW01110, metal not drawn]
0.49 %ID/g

###

- procedure details: Ex vivo biodistribution in PC-3 tumor-bearing mice
- condition: male, NOD.Cg-Rag1^tm1Mom Il2rg^tm1Wjl/SzJ (NRG), mouse, tumor/blood, total radioactivity, Tumor/blood uptake ratio, 72 h post-injection
Numbered stars: 1 amine (or outer) side, 2 acyl side, 3 side chain; on linkers, the order of the positions; unused ones are H or OH. Square brackets hold non-standard residues; d marks the D form. Peptide text beside a SMILES is read from it. * marks the point of attachment. DOTA = O=C(O)CN1CCN(CC(=O)O)CCN(CC(=O)*)CCN(CC(=O)O)CC1; NMeH = CN[C@@H](Cc1c[nH]cn1)C(=O)O; X1 = O=C(CN1CCC(N[*:1])CC1)[*:2]; Tle = CC(C)(C)[C@H](N)C(=O)O; Thz = O=C(O)[C@@H]1CSCN1
We begin with a simple list: items and their reported tissue to tissue ratio at 72 h.
No unit in the answer, only the number.

1. CC(C)C[C@H](NC(=O)[C@H](Cc1cnc[nH]1)N(C)C(=O)CNC(=O)[C@@H](NC(=O)[C@H](C)NC(=O)[C@H](Cc1c[nH]c2ccccc12)NC(=O)[C@H](Cc1c[nH]cn1)NC(=O)[C@@H](Cc1ccccc1)NC(=O)CN1CCC(NC(=O)CN2CCN(CC(=O)O)CCN(CC(=O)O)CCN(CC(=O)O)CC2)CC1)C(C)(C)C)C(=O)N1CSC[C@H]1C(N)=O [[^177Lu]Lu-LW01142, metal not drawn] ({DOTA}-[X1][dF]HWA[Tle]G[NMeH]L[Thz]-NH2)	1620

Now turn to the next compound.
Identify tissue to tissue ratio at 72 h associated with the compound CC(C)C[C@H](NC(=O)[C@H](Cc1cnc[nH]1)N(C)C(=O)CNC(=O)[C@@H](NC(=O)[C@H](C)NC(=O)[C@H](Cc1c[nH]c2ccccc12)NC(=O)[C@H](CCC(N)=O)NC(=O)[C@@H](Cc1ccccc1)NC(=O)CN1CCC(NC(=O)CN2CCN(CC(=O)O)CCN(CC(=O)O)CCN(CC(=O)O)CC2)CC1)C(C)(C)C)C(=O)N1CSC[C@H]1C(N)=O [[^177Lu]Lu-LW01110, metal not drawn]
1330
